The reported numbers originate from patent US20240325548A1.

Tested on: hNPCs
ASSAY_PROCEDURE: Neuronal differentiation of hNPCs treated with IKVAV PAs (TUJ-1+ cells)
Assay type: cell-based, human
The label is Fulfilled for percentage of induction of TUJ-1+ neuronal cells below 8% and Not fulfilled for percentage of induction of TUJ-1+ neuronal cells equal to or exceeding 8%.

Previously resolved entries follow.
SUBSTANCE	CLASS_LABEL
C16-G4E4GIKVAV [IKVAV PA5]	Not fulfilled
C16-A2G2E4GIKVAV [IKVAV PA2]	Not fulfilled
C16-A4E4GIKVAV [IKVAV PA8]	Fulfilled
C16-VAG2E4GIKVAV [IKVAV PA4]	Not fulfilled
C16-AVA2E4GIKVAV [IKVAV PA7]	Fulfilled

Shift focus to the following entry.
query: Please let me know if C16-AVG2E4GIKVAV [IKVAV PA3] shows percentage of induction of TUJ-1+ neuronal cells below 8%.
result: Fulfilled

* * *

ASSAY_PROCEDURE: T2-NMR spin-spin relaxation rate of PA assemblies
Type: physicochemical
REPORTED_CONDITIONS: T2 relaxation of K residue of IKVAV PAs, no Ca2+
VALUE_KIND: R2
Reply with the number, then its unit.

Reference set, count: 7
SUBSTANCE	EXPERIMENTAL_VALUE
C16-AVA2E4GIKVAV [IKVAV PA7]	6.0 ± 0.03 s⁻¹
C16-V2A2E4GIKVAV [IKVAV PA1]	11.2 ± 2.9 s⁻¹
C16-AVG2E4GIKVAV [IKVAV PA3]	4.5 ± 0.7 s⁻¹
C16-A2G2E4GIKVAV [IKVAV PA2]	2.7 ± 0.1 s⁻¹
C16-VAG2E4GIKVAV [IKVAV PA4]	5.6 ± 0.4 s⁻¹
C16-G4E4GIKVAV [IKVAV PA5]	2.6 ± 0.03 s⁻¹
C16-VA3E4GIKVAV [IKVAV PA6]	6.1 ± 0.8 s⁻¹

In the following, a different substance is considered.
query: Supply recorded R2 for C16-A4E4GIKVAV [IKVAV PA8] here.
result: 4.5 ± 0.2 s⁻¹

* * *

ASSAY_PROCEDURE: Miscibility and hydrogel formation of IKVAV PA / FGF2 PA binary systems (cryo-TEM, rheology)
Format: physicochemical
REPORTED_CONDITIONS: particularly at molar ratio 90:10
VALUE_KIND: miscibility and hydrogel formation when mixed with FGF2 PA1 or FGF2 PA2

SUBSTANCE	EXPERIMENTAL_VALUE
C16-VAG2E4GIKVAV [IKVAV PA4]	immiscibility
C16-V2A2E4GIKVAV [IKVAV PA1]	immiscibility
C16-G4E4GIKVAV [IKVAV PA5]	immiscibility
